Molecular target: FXR (Homo sapiens, UniProt Q96RI1)
Construct: using a full length FXR on a natural response element; expressed in transfected cells
Sequence (Q96RI1 whole entry, species assumed): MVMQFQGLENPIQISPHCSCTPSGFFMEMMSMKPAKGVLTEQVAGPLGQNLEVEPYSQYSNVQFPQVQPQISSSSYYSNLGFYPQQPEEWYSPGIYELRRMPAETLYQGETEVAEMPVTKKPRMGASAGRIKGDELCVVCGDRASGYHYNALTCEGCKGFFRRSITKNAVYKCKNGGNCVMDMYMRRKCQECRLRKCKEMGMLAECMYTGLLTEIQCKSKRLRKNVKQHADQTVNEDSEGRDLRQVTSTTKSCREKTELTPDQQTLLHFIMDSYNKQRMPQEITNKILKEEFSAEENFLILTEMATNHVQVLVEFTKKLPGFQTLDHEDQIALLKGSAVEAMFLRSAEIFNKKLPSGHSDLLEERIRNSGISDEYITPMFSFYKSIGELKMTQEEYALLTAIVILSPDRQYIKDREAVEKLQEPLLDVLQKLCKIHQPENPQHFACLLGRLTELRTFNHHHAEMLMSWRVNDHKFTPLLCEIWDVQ
Assay: cell-based transcription assay, FXR responsive promoter linked to a luciferase reporter
Settings: Tables 1-15; FXR activation, cell-based reporter assay; read-out: EC50
Mark MET for EC50 under 200 nM, NOT MET if at or over.

>  <sample-smiles>
COC(=O)C=Cc1cccc(N(Cc2ccc(C=Cc3cccc(F)c3)cc2)C(=O)C2CCCCC2)c1

>  <category-label>
MET

$$$$
>  <sample-smiles>
COC(=O)/C=C/c1cccc(N(Cc2ccc(-c3cccc(OC)c3)cc2)C(=O)C2CCCCC2)c1

>  <category-label>
MET

$$$$
>  <sample-smiles>
CC(C)(C)OC(=O)/C=C/c1cccc(N(Cc2ccc(CCC(=O)OC(C)(C)C)cc2)C(=O)C2CCCCC2)c1

>  <category-label>
NOT MET

$$$$
>  <sample-smiles>
COC(=O)/C=C/c1cccc(N(Cc2ccc(/C=C/C(=O)OC(C)(C)C)cc2)C(=O)c2ccccc2)c1

>  <category-label>
NOT MET

$$$$

I'd appreciate it if you could check whether "COC(=O)/C=C/c1cccc(N(Cc2ccc(-c3c(OC)cccc3OC)cc2)C(=O)NC(C)C)c1" has EC50 smaller than 200 nM. NOT MET

Record "COC(=O)/C=C/c1cccc(N(Cc2ccc(-c3cccc(OC)c3)cc2)C(=O)NC(C)C)c1" : is its EC50 strictly below 200 nM? NOT MET

Lab note: confirm whether the reported EC50 for this compound is below 200 nM, equality not counting. compound: "COC(=O)/C=C/c1cccc(N(Cc2ccc(-c3ccc(F)c(F)c3)cc2)C(=O)C(C)C)c1" NOT MET
